Target: SRC (Homo sapiens, UniProt P12931)
Sequence (P12931 whole entry): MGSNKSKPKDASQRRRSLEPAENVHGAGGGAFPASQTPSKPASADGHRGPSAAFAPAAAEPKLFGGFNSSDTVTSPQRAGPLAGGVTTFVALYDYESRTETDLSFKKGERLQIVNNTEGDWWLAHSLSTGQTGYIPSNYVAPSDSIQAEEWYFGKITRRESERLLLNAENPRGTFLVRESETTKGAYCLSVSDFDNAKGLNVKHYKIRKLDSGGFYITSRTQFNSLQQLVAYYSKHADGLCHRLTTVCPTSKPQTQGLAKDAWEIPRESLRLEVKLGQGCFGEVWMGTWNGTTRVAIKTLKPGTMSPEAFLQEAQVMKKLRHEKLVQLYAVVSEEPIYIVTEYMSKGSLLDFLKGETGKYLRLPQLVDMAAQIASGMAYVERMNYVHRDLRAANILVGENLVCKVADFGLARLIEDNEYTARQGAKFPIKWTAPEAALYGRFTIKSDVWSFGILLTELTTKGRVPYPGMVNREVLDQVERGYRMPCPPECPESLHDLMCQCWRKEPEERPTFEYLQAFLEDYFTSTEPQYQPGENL
Test: Inhibition of a panel of kinases, in vitro HotSpot kinase assay: SRC
Format: biochemical
Settings: D-compounds panel data; 1 μM ATP
pIC50: −log10 of the molar value.
Measured pIC50 of individual entries

Here are 5 compounds together with their reported answers.
C[C@@H]1[C@H](NC(=O)N(C)C2CC2)CCCN1c1cnc(C(N)=O)c(Nc2cnn(C)c2)n1 [Example D-314] : 7.00 to 8.00
Cn1cc(Nc2nc(N3CCC[C@@H](n4ccc5cc(C6CC6)ccc5c4=O)C3)nnc2C(N)=O)cn1 [Example D-206] : 7.00 to 8.00
Cc1cc(Nc2nc(N3CCCC(c4ncc(-c5ccccc5)[nH]4)C3)cnc2C(N)=O)sn1 [Example D-164] : 6.00 to 7.00
C[C@@H]1[C@H](NC(=O)c2ccc(C(O)(C(F)(F)F)C(F)(F)F)cc2)CCCN1c1cnc(C(N)=O)c(Nc2cnn(C)c2)n1 [Example D-240] : 6.00 to 7.00
C[C@@H]1[C@H](NC(=O)c2ccc3scnc3c2)CCCN1c1cnc(C(N)=O)c(Nc2cnn(C)c2)n1 [Example D-237] : 7.00 to 8.00

Give its pIC50 value. Item: C[C@@H]1[C@H](NC(=O)c2ccc(C3CC3)cc2)CCCN1c1cnc(C(N)=O)c(Nc2cnn(C3CCN(C(=O)C4CC4)CC3)c2)n1 [Example D-288]
7.00 to 8.00

Give its pIC50 value. Item: C[C@@H]1[C@H](NC(=O)c2ccc(C3CC3)cc2)CCCN1c1cnc(C(N)=O)c(Nc2ccc(N3CCC(F)(F)CC3)cc2)n1 [Example D-96]
< 5.00

Give its pIC50 value. Item: C[C@@H]1[C@H](NC(=O)N(C)C)CCCN1c1cnc(C(N)=O)c(Nc2ccc(OC3CCN(C)CC3)cc2)n1 [Example D-33]
7.00 to 8.00

Give its pIC50 value. Item: C[C@@H]1[C@H](NC(=O)C23CC(C2)C3)CCCN1c1cnc(C(N)=O)c(Nc2cnn(C)c2)n1 [Example D-90]
6.00 to 7.00

###

Target: UniProt:P52333
Sequence (P52333 1-1124): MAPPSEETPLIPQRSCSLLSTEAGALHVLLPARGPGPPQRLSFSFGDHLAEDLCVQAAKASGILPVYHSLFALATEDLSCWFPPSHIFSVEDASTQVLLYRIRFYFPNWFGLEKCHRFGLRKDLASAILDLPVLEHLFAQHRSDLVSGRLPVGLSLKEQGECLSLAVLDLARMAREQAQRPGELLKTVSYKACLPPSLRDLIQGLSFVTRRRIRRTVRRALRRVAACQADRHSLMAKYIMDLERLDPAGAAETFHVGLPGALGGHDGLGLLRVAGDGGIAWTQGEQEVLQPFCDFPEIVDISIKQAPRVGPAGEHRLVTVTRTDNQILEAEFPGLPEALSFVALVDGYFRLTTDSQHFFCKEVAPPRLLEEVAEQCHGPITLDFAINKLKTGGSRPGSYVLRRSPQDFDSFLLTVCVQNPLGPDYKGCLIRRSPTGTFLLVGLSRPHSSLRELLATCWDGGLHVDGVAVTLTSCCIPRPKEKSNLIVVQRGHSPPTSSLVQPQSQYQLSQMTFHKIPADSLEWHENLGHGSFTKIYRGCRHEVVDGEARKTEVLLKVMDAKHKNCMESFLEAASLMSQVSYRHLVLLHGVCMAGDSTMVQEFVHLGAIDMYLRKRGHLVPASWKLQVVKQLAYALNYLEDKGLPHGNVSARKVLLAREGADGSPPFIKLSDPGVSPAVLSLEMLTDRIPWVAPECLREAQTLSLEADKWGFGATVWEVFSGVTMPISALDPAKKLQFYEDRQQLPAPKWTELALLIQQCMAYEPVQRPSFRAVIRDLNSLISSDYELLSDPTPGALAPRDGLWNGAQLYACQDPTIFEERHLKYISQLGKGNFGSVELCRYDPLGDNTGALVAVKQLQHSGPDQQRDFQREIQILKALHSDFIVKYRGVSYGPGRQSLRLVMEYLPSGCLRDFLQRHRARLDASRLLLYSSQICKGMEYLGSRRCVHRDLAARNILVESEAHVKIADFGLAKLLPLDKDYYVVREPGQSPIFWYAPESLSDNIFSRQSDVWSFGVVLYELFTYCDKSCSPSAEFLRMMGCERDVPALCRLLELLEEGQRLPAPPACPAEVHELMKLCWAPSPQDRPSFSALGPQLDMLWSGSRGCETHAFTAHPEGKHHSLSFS
Experiment: Inhibition of a panel of kinases, in vitro HotSpot kinase assay: JAK3
Type: biochemical
Conditions: D-compounds panel data; 1 μM ATP; read-out: IC50 JAK3
pIC50: −log10 of the molar value.
measured-quantity: pIC50

Here are 5 compounds together with their reported answers.
C[C@@H]1[C@H](NC(=O)c2ccc(C(C)(C)N(C)C)cc2)CCCN1c1cnc(C(N)=O)c(Nc2cnn(C)c2)n1 [Example D-108] : < 5.00
C[C@@H]1[C@H](NC(=O)c2ccc(C(C)(O)CO)cc2)CCCN1c1cnc(C(N)=O)c(Nc2cnn(C)c2)n1 (single isomer, unassigned) [Example D-256] : 6.00 to 7.00
C/C=C/c1ccc(C(=O)N[C@@H]2CCCN(c3cnc(C(N)=O)c(Nc4cc(C)ns4)c3)[C@@H]2C)c(F)c1 [Example D-170] : 5.00 to 6.00
C[C@@H]1[C@H](NC(=O)c2ccc(C3CC3)cc2)CCCN1c1cnc(C(N)=O)c(Nc2ccc(CN3CCOCC3)cc2)n1 [Example D-316] : 5.00 to 6.00
C[C@@H]1[C@H](NC(=O)c2ccc(C(C)(C)O)cc2F)CCCN1c1nnc(C(N)=O)c(Nc2cnn(C)c2)n1 [Example D-308] : 5.00 to 6.00

Give its pIC50 value. Item: C[C@@H]1[C@H](NC(=O)c2ccc(C(C)(O)C(F)(F)F)cc2)CCCN1c1cnc(C(N)=O)c(Nc2cnn(C)c2)n1 (single isomer, unassigned) [Example D-214]
5.00 to 6.00

Give its pIC50 value. Item: Cn1cc(Nc2nc(N3CCC(F)(F)[C@@H](NC(=O)c4ccc(C5CC5)cc4)C3)cnc2C(N)=O)cn1 [Example D-193]
5.00 to 6.00

Give its pIC50 value. Item: C[C@@H]1[C@H](NC(=O)c2ccc(C3CC3)cc2F)CCCN1c1cnc(C(N)=O)c(Nc2cc(CN3CCOCC3)ns2)n1 [Example D-173]
6.00 to 7.00

Give its pIC50 value. Item: C[C@@H]1[C@H](NC(=O)c2cnc(C3CC3)nc2)CCCN1c1cnc(C(N)=O)c(Nc2cnn(C)c2)n1 [Example D-86]
6.00 to 7.00

Give its pIC50 value. Item: CN1CCN(C(=O)c2ccc(Nc3nc(N[C@H]4CC[C@H](NC(=O)c5ccc(C6CC6)cc5F)CC4)cnc3C(N)=O)cc2)CC1 [Example D-70]
6.00 to 7.00

Data provenance is patent US20210070748A1.
